target desc: human MCH receptor (Homo sapiens, UniProt Q99705)
Sequence (Q99705 whole entry): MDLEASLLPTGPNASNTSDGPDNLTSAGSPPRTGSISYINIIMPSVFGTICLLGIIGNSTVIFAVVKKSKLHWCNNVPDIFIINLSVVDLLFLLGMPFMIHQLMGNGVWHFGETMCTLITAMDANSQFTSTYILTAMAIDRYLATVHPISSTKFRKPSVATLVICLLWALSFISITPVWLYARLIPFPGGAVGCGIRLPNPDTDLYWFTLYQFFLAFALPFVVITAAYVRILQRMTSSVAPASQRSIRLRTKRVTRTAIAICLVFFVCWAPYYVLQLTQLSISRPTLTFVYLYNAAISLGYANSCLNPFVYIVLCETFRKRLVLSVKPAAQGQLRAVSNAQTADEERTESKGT
assay summary: Aequorin bioluminescence functional assay in 293-AEQ17 cells transfected with human MCH receptor
Format: cell-based
Design: expressed in transfected cells; host or cells: 293-AEQ17 (aequorin-expressing HEK-293 reporter line), transient lipofectamine transfection, pcDNA-3 vector
conditions: Table 1; at 10 μM; aequorin functional assay
Where a SMILES comes first, the peptide text is derived from it. Bridges are numbered along the chain shown (N, C = ends).
measurement label: % Activation at 10 μM (%)
The response must be a number in % with no trailing unit.

Find the recorded % Activation at 10 μM belonging to CSCC[C@@H]1NC(=O)[C@@H](NC(=O)[C@H](CCCNC(=N)N)NC(C)=O)CSSC[C@@H](C(=O)N[C@@H](Cc2ccc(O)cc2)C(N)=O)NC(=O)[C@@H]2CCCN2C(=O)[C@H](CCCNC(=N)N)NC(=O)[C@H](Cc2ccccc2)NC(=O)[C@H](C(C)C)NC(=O)[C@H](CCCNC(=N)N)NC(=O)CNC(=O)[C@H](CC(C)C)NC1=O [compound 8] (Ac-RCMLGRVFRPCY-NH2; disulfide 2-11) and report it.
123

###

So I've got a bunch of compounds here, and I need their Activity Activation % values.
target desc: human MCH receptor (Homo sapiens)
assay summary: Aequorin bioluminescence functional assay in 293-AEQ17 cells transfected with human MCH receptor
Format: cell-based
Parameters: expressed in transfected cells; host or cells: 293-AEQ17 (aequorin-expressing HEK-293 reporter line), transient lipofectamine transfection, pcDNA-3 vector; concentration or dose not given beside the values
conditions: Table 4; position 6 modification
The response must be a number in % with no trailing unit.

Find the recorded Activity Activation % belonging to CSCC[C@@H]1NC(=O)[C@@H](NC(=O)[C@H](CO)NC(C)=O)CSSC[C@@H](C(N)=O)NC(=O)[C@@H]2CCCN2C(=O)[C@H](CCCNC(=N)N)NC(=O)[C@H](Cc2ccc(O)cc2)NC(=O)[C@H](C(C)C)NC(=O)[C@H](CCCNC(=N)N)NC(=O)CNC(=O)[C@H](CC(C)C)NC1=O [compound 35] and report it.
120

And CSCC[C@@H]1NC(=O)[C@@H](NC(C)=O)CSSC[C@@H](C(N)=O)NC(=O)[C@@H]2CCCN2C(=O)[C@H](CCCNC(=N)N)NC(=O)[C@H](Cc2ccc(O)cc2)NC(=O)[C@H](C(C)C)NC(=O)[C@H](CCCNC(=N)N)NC(=O)CNC(=O)[C@H](CC(C)C)NC1=O [compound 38] ?
82

###

target desc: human MCH receptor (Homo sapiens, UniProt Q99705)
assay summary: Radiolabeled MCH-R binding assay: inhibition of [125I]-human MCH (Phe13, Tyr19 substituted) binding to cell membranes (filter or SPA format)
Design: expressed in transfected cells
conditions: Table 5; position 10 modification; read-out: Activity IC50
So I've got a bunch of molecules here, and I need their IC50 values.
The response must be a number in nM with no trailing unit.

Find the recorded IC50 belonging to `CSCC[C@@H]1NC(=O)[C@@H](NC(=O)[C@H](CCCNC(=N)N)NC(C)=O)CSSC[C@@H](C(N)=O)NC(=O)[C@@H]2CCCN2C(=O)[C@H](CCCNC(=N)N)NC(=O)[C@H](Cc2ccc(O)cc2)NC(=O)[C@H](C(C)C)NC(=O)[C@H](CCCNC(=N)N)NC(=O)CNC(=O)[C@H](CC(C)C)NC1=O` and report it.
0.5

And `CSCC[C@@H]1NC(=O)[C@@H](NC(=O)[C@H](CCCNC(=N)N)NC(C)=O)CSSC[C@@H](C(N)=O)NC(=O)[C@@H]2CCCN2C(=O)[C@H](CCCNC(=N)N)NC(=O)[C@H](Cc2ccc(O)cc2)NC(=O)[C@H](C(C)C)NC(=O)[C@H](CCCNC(=N)N)NC(=O)[C@@H]2CCCN2C(=O)[C@H](CC(C)C)NC1=O` ?
700

And `CSCC[C@@H]1NC(=O)[C@@H](NC(=O)[C@H](CCCNC(=N)N)NC(C)=O)CSSC[C@@H](C(N)=O)NC(=O)[C@@H]2CCCN2C(=O)[C@H](CCCNC(=N)N)NC(=O)[C@H](Cc2ccc(O)cc2)NC(=O)[C@H](C(C)C)NC(=O)[C@H](CCCNC(=N)N)NC(=O)[C@H](CCC(=O)O)NC(=O)[C@H](CC(C)C)NC1=O` ?
190

And `CSCC[C@@H]1NC(=O)[C@@H](NC(=O)[C@H](CCCNC(=N)N)NC(C)=O)CSSC[C@@H](C(N)=O)NC(=O)[C@@H]2CCCN2C(=O)[C@H](CCCNC(=N)N)NC(=O)[C@H](Cc2ccc(O)cc2)NC(=O)[C@H](C(C)C)NC(=O)[C@H](CCCNC(=N)N)NC(=O)[C@H](CCCCN)NC(=O)[C@H](CC(C)C)NC1=O` ?
110
